# Test system: GABAA receptor
# measurement.description: GABAA receptor binding, competition assay with [3H]-flunitrazepam and rat brain membranes
# protocol.conditions: 10 μM; 3H-flunitrazepam, rat brain extract; Table 3
readout: GABAAR binding, % inhibition at 10 μM

[[record]]
compound = "CCOC(=O)c1ncn2c1C1(CCCCC1)N=C(c1ccccc1F)c1cc(Br)ccc1-2 [Compound 13]"
data_value = "34 (n.d.) %"

[[record]]
compound = "O=C(O)c1ncn2c1C1(CCCCC1)N=C(c1ccccc1F)c1cc(Br)ccc1-2 [Compound 29]"
data_value = "24 (n.d.) %"

[[record]]
compound = "O=C(O)c1ncn2c1C1(CCCC1)N=C(c1ccccc1F)c1cc(Br)ccc1-2 [Compound 28]"
data_value = "2 (n.d.) %"

[[record]]
compound = "CCOC(=O)c1ncn2c1C1(CCC1)N=C(c1ccccc1F)c1cc(Br)ccc1-2 [Compound 11]"
data_value = "19 (n.d.) %"

[[record]]
compound = "O=C1Nc2ccc(Cl)cc2C(c2ccccc2F)=NC12CC2 [Compound 6]"
data_value = "90%"

[[record]]
compound = "CC1(C)N=C(c2ccccc2F)c2cc(Br)ccc2NC1=O [Compound 8]"
data_value = "70%"

[[record]]
compound = "O=C(O)c1ncn2c1C1(CC1)N=C(c1ccccc1F)c1cc(Cl)ccc1-2 [Compound 30]"
data_value = "18 (n.d.) %"

